Assay: Pharmacokinetics study of KDG-0271 in male CD1 mice (Example 3)
Type: in vivo
Details: male, mouse, plasma; CD1 mice, 1 mg/kg IV
Experimental: A standard PK study of KDG-0271 was performed in male CD1 mice dosed with a single oral or intraperitoneal dose of KDG-0271. The parameters of the PK study are described in Table 18. […] For IV and IP, after collection, plasma samples from the same time point were pooled, and the pooled samples were analyzed by LC/MS/MS. […] BLOQ=Below quantifiable limit of 1 ng/mL. […] The PO bioavailability (F %) was calculated as following: […] The IP bioavailability (F %) was calculated as following: […]
RESULT_TYPE: half-life (min)
Write the value in min as a bare number.

Recorded half-life (molecule Cc1n[nH]c2c1C(c1cc(C#CC3CN(C(=O)OC(C)(C)C)C3)cc(CO)c1)(C(C)C)C(C#N)=C(N)O2 (stereo not shown) ): 47.2

* * *

Assay: Pharmacokinetics study of KDG-0271 in male CD1 mice (Example 3)
Assay type: in vivo
Conditions: mouse, plasma; male CD1 mice, 200 mg/kg PO
Procedure: A standard PK study of KDG-0271 was performed in male CD1 mice dosed with a single oral or intraperitoneal dose of KDG-0271. The parameters of the PK study are described in Table 18. […] For IV and IP, after collection, plasma samples from the same time point were pooled, and the pooled samples were analyzed by LC/MS/MS. […] BLOQ=Below quantifiable limit of 1 ng/mL. […] The PO bioavailability (F %) was calculated as following: […] The IP bioavailability (F %) was calculated as following: […]
RESULT_TYPE: Cmax (ng/mL)
Write the value in ng/mL as a bare number.

Recorded Cmax (compound Cc1n[nH]c2c1C(c1cc(C#CC3CN(C(=O)OC(C)(C)C)C3)cc(CO)c1)(C(C)C)C(C#N)=C(N)O2 (stereo not shown) ): 1070

* * *

assay: Pharmacokinetics study of KDG-0271 in male CD1 mice (Example 3); format: in vivo; details: mouse; male CD1 mice, plasma, 200 mg/kg IP, 0.5 h; read-out: Concentration IP_Mean
RESULT_TYPE: concentration at 0.5 h (ng/mL)
Write the value in ng/mL as a bare number.

Recorded concentration at 0.5 h (compound Cc1n[nH]c2c1C(c1cc(C#CC3CN(C(=O)OC(C)(C)C)C3)cc(CO)c1)(C(C)C)C(C#N)=C(N)O2 (stereo not shown) ): 1530

* * *

Experiment: Pharmacokinetics study of KDG-0320-0A in male CD1 mice (Example 1)
Type: in vivo
Settings: mouse, plasma, 50 mg/kg PO, 1 h, read-out: Concentration PO_Mean
Description: A standard pharmacokinetic (PK) study of KDG-0320-0A was performed in male CD1 mice dosed with a single oral, intravenous or intraperitoneal dose of KDG-0320-0A. The parameters of the PK study are described in Table 2. […] For IV, PO and IP, after collection, plasma samples from the same time point were pooled, and the pooled samples were analyzed by LC/MS/MS. […] BLOQ=Below quantifiable limit of 1 ng/mL. […] The PO bioavailability (F %) was calculated as following: […]
Counter-ions that a name gives are not always drawn.
RESULT_TYPE: concentration at 1 h

Recorded concentration at 1 h (compound Cc1n[nH]c2c1C(c1cc(C#C[C@H]3CC[C@H](NC(=O)OC(C)(C)C)CC3)cc(CO)c1)(C(C)C)C(C#N)=C(N)O2 (stereo partly shown) [KDG-0320, hydrochloride] ): 605 ng/mL

* * *

assay: Pharmacokinetics study of KDG-0388 in male CD1 mice (Example 2); format: in vivo; conditions: mouse; male CD1 mice, plasma, 200 mg/kg IP, 0.25 h; read-out: Concentration IP_Mean
RESULT_TYPE: concentration at 0.25 h

Recorded concentration at 0.25 h (molecule Cc1n[nH]c2c1C(c1cc(C#C[C@H]3C[C@@H](NC(=O)OC(C)(C)C)C3)cc(CO)c1)(C(C)C)C(C#N)=C(N)O2 (stereo partly shown) [KDG-0388] ): 7520 ng/mL

* * *

assay: Pharmacokinetics study of KDG-0271 in male CD1 mice (Example 3); type: in vivo; settings: mouse, plasma; male CD1 mice, 200 mg/kg IP
RESULT_TYPE: Tmax (min)
Write the value in min as a bare number.

Recorded Tmax (compound Cc1n[nH]c2c1C(c1cc(C#CC3CN(C(=O)OC(C)(C)C)C3)cc(CO)c1)(C(C)C)C(C#N)=C(N)O2 (stereo not shown) ): 15

* * *

test system: HCT116; assay: HCT116 formate rescue assay (with sodium formate 1 mM); format: cell-based; conditions: HCT116 growth
RESULT_TYPE: IC50

Summary line: Cc1n[nH]c2c1C(c1cc(C#C[C@H]3C[C@@H](NC(=O)OC(C)(C)C)C3)cc(CO)c1)(C(C)C)C(C#N)=C(N)O2 (stereo partly shown) , HCT116, reported IC50 = > 5 µM

* * *

assay: Pharmacokinetics study of KDG-0320-0A in male CD1 mice (Example 1); format: in vivo; conditions: mouse, plasma, 1 mg/kg IV, 1 h, read-out: Concentration IV_Mean
Where a name gives a salt, the structure may show the parent alone.
RESULT_TYPE: concentration at 1 h (ng/mL)
Write the value in ng/mL as a bare number.

Recorded concentration at 1 h (compound Cc1n[nH]c2c1C(c1cc(C#C[C@H]3CC[C@H](NC(=O)OC(C)(C)C)CC3)cc(CO)c1)(C(C)C)C(C#N)=C(N)O2 (stereo partly shown) [KDG-0320, hydrochloride] ): 25.7

* * *

assay: Pharmacokinetics study of KDG-0320-0A in male CD1 mice (Example 1); assay type: in vivo; settings: mouse, plasma, 50 mg/kg PO, 0.5 h, read-out: Concentration PO_Mean
Structures can show the parent of a compound that is named as a salt.
RESULT_TYPE: concentration at 0.5 h (ng/mL)
Write the value in ng/mL as a bare number.

Recorded concentration at 0.5 h (compound Cc1n[nH]c2c1C(c1cc(C#C[C@H]3CC[C@H](NC(=O)OC(C)(C)C)CC3)cc(CO)c1)(C(C)C)C(C#N)=C(N)O2 (stereo partly shown) [KDG-0320, hydrochloride] ): 315

* * *

Assay: Pharmacokinetics study of KDG-0388 in male CD1 mice (Example 2)
Type: in vivo
Conditions: mouse, plasma; male CD1 mice, 200 mg/kg PO
Description: A standard PK study of KDG-0388 was performed in male CD1 mice dosed with a single oral or intraperitoneal dose of KDG-0388. The parameters of the PK study are described in Table 10. […] For IV and IP, after collection, plasma samples from the same time point were pooled, and the pooled samples were analyzed by LC/MS/MS. […] BLOQ=Below quantifiable limit of 1 ng/mL. […] The PO bioavailability (F %) was calculated as following: […] The IP bioavailability (F %) was calculated as following: […]
RESULT_TYPE: half-life (h)
Write the value in h as a bare number.

Recorded half-life (compound Cc1n[nH]c2c1C(c1cc(C#C[C@H]3C[C@@H](NC(=O)OC(C)(C)C)C3)cc(CO)c1)(C(C)C)C(C#N)=C(N)O2 (stereo partly shown) [KDG-0388] ): 1.69

* * *

assay: Pharmacokinetics study of KDG-0271 in male CD1 mice (Example 4); format: in vivo; settings: mouse, plasma, 50 mg/kg PO, read-out: MRTInf_obs
RESULT_TYPE: MRT inf (h)
Write the value in h as a bare number.

Recorded MRT inf (compound Cc1n[nH]c2c1C(c1cc(C#CC3CN(C(=O)OC(C)(C)C)C3)cc(CO)c1)(C(C)C)C(C#N)=C(N)O2 (stereo not shown) ): 1.49

* * *

assay: Pharmacokinetics study of KDG-0320-0A in male CD1 mice (Example 1); format: in vivo; conditions: mouse, plasma, 1 mg/kg IV, 4 h, read-out: Concentration IV_Mean
Where a name gives a salt, the structure may show the parent alone.
RESULT_TYPE: concentration at 4 h (ng/mL)
Write the value in ng/mL as a bare number.

Recorded concentration at 4 h (molecule Cc1n[nH]c2c1C(c1cc(C#C[C@H]3CC[C@H](NC(=O)OC(C)(C)C)CC3)cc(CO)c1)(C(C)C)C(C#N)=C(N)O2 (stereo partly shown) [KDG-0320, hydrochloride] ): 3.07

* * *

tested on: HCT116; test: HCT116 growth inhibition assay; type: cell-based; conditions: without formate
RESULT_TYPE: IC50

COMPOUND	READOUT_VALUE
Cc1nnc(N[C@H]2CC[C@H](C#Cc3cc(CO)cc(C4(C(C)C)C(C#N)=C(N)Oc5[nH]nc(C)c54)c3)CC2)o1 (stereo partly drawn)	C″
Cc1n[nH]c2c1C(c1cc(C#C[C@H]3C[C@@H](NC(=O)OC(C)(C)C)C3)cc(CO)c1)(C(C)C)C(C#N)=C(N)O2 (stereo partly drawn) [KDG-0388-0pk2]	A″
Cc1n[nH]c2c1[C@](c1cc(C#C[C@H]3C[C@@H](NC(=O)OC(C)(C)C)C3)cc(CO)c1)(C(C)C)C(C#N)=C(N)O2	D″
CCC(C)(C)OC(=O)N1CC(C#Cc2cc(CO)cc(C3(C(C)C)C(C#N)=C(N)Oc4[nH]nc(C)c43)c2)C1 (stereo not drawn)	B″
COC(=O)N[C@H]1C[C@H](C#Cc2cc(CO)cc(C3(C(C)C)C(C#N)=C(N)Oc4[nH]nc(C)c43)c2)C1 (stereo partly drawn)	B″

# context switch: different compound, same IC50
Recorded IC50 (compound Cc1n[nH]c2c1C(c1cc(C#C[C@H]3C[C@@H](NC(=O)OC(C)C)C3)cc(CO)c1)(C(C)C)C(C#N)=C(N)O2 (stereo partly drawn) ): A″
